System: Enterococcus faecalis
TEST_METHOD_NOTES: Antimicrobial activity against vancomycin-sensitive Enterococcus faecalis ATCC 19433 by CLSI protocol based broth microdilution method
Assay type: functional
OBSERVATION_TYPE: MIC (µg/mL)
Write the answer as a number in µg/mL, unit excluded.

Recorded results for 3 molecules are shown here.
MOLECULE	MEASUREMENT_UNITS	REPORTED
COc1cc2c(-c3ccc(-c4ccccc4)cc3)cc3c4ccc(OC)c(OC)c4c[n+](C)c3c2cc1OC.[Cl-]	µg/mL	16
COc1cc2c(-c3ccccc3)cc3c4ccc(OC)c(OC)c4c[n+](C)c3c2cc1OC.[Cl-]	µg/mL	8
COc1cc2c(ccc3c4ccc5c(c4c[n+](C)c23)OCO5)c(-c2ccccc2)c1OC.[Cl-]	µg/mL	8

MIC measured on "COc1cc2c(ccc3c4ccc(OC)c(OC)c4c[n+](C)c23)c(C2CC2)c1OC.[Cl-]" = 8

###

System: Enterococcus faecalis
TEST_METHOD_NOTES: Antimicrobial activity against vancomycin-sensitive Enterococcus faecalis ATCC 19433 by CLSI protocol based broth microdilution method
Assay type: functional
OBSERVATION_TYPE: MIC (µg/mL)
Entry rule: numbers only, all in µg/mL.

As a guide, the following entries are already answered.
COMPOUND	OBSERVATION_TYPE	MEASUREMENT_UNITS	REPORTED
COc1cc2c(ccc3c4ccc(OC)c(OC)c4c[n+](C)c23)c(C2=CCCCC2)c1OC.[Cl-]	MIC	µg/mL	16
CC[C@H]1OC(=O)[C@H](C)[C@@H](O[C@H]2C[C@@](C)(OC)[C@@H](O)[C@H](C)O2)[C@H](C)[C@@H](O[C@@H]2O[C@H](C)C[C@H](N(C)C)[C@H]2O)[C@](C)(O)C[C@@H](C)C(=O)[C@H](C)[C@@H](O)[C@]1(C)O [ERYTHROMYCIN]	MIC	µg/mL	1

Now for another entry.
Memo: "COc1cc2ccc3c4ccc5c(c4c[n+](C)c3c2cc1OC)OCO5.[Cl-]" , reported MIC: 64

###

Below is a list of entries, each paired with its recorded MIC value.
System: Enterococcus faecalis
TEST_METHOD_NOTES: Antimicrobial activity against vancomycin-sensitive Enterococcus faecalis ATCC 19433 by CLSI protocol based broth microdilution method
Type: functional
A number alone suffices; assume µg/mL.

MOLECULE	MEASUREMENT_UNITS	MIC
COc1cc2c(ccc3c4ccc(OC)c(OC)c4c[n+](C)c23)c(-c2ccc(-c3ccccc3)cc2)c1OC.[Cl-]	µg/mL	4
COc1cc(-c2c(OC)c(OC)cc3c2ccc2c4ccc(OC)c(OC)c4c[n+](C)c32)cc(OC)c1OC.[Cl-]	µg/mL	32
COc1cc2c(ccc3c4ccc(OC)c(OC)c4c[n+](C)c23)c(-c2cccnc2)c1OC.[Cl-]	µg/mL	32

Memo: "COc1cc2c(ccc3c4ccc(OC)c(OC)c4c[n+](C)c23)c(-c2ccc(N(C)C)cc2)c1OC.[Cl-]" , reported MIC: 8

Per the records, this compound ( "COc1cc2c(-c3ccc(-c4ccccc4)cc3)cc3c4ccc5c(c4c[n+](C)c3c2cc1OC)OCO5.[Cl-]" ) has MIC equal to 4

What the record says about "Cc1onc(-c2ccccc2)c1C(=O)N[C@@H]1C(=O)N2[C@@H]1SC(C)(C)[C@@H]2C(=O)O" : MIC is 8

Lab note: "COc1cc2c(ccc3c4ccc5c(c4c[n+](C)c23)OCO5)c(-c2ccc(-c3ccccc3)cc2)c1OC.[Cl-]" gave MIC of 8
